- Assayed Target: T1, human BCMA with a His tag (ACROBiosystems, Catalog No.: BCA-H522y) (human)
- T1 construct: Bought His-tagged recombinant protein; also called huBCMA-His; Recombinant human BCMA
- T1 chain: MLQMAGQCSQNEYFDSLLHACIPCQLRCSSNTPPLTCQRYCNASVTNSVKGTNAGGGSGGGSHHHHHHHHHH
- Procedure Details: SPR, Biacore T200
Measurement Name: Kd (nM)
One number for each entry, in nM.

Reported Kd for SCT-Aa02(h/h) (antibody, V domains shown, Full IgG format, chimeric: human IgG1 heavy chain constant region, human kappa light chain constant region) VH: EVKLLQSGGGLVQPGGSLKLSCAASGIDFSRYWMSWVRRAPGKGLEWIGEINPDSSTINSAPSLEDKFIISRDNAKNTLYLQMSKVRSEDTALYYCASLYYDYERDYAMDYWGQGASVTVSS VL: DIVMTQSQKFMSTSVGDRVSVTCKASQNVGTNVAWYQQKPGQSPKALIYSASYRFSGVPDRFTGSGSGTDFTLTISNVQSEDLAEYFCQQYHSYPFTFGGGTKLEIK was 1.22

Reported Kd for SCT-Aa09(m/m) (antibody, V domains shown, Full IgG format: mouse IgG1 heavy chain constant region, mouse kappa light chain constant region) VH: QVQLQQSDAELVKPGASVKISCKVSGYTFTDHTIHWMKQRPEQGLEWIGYFYPRDDNTKYNEKFKGKATLTADRSSSTAYMQLNSLTSEDSAVYFCARWDYEGFDYWGQGTTLTVSS VL: DIVMTQSPATLSVTPGDRVSLSCRASQSIRDYLHWYQQKSHESPRLLIKYASQSISGIPSRFSGSGSGSDFTLSINSVEPEDVGVYYCQNGHSFPPTFGSGTKLEIK was 76.6

// next entry
Reported Kd for SCT-Aa03(h/h) (antibody, V domains shown, Full IgG format, chimeric: human IgG1 heavy chain constant region, human kappa light chain constant region) VH: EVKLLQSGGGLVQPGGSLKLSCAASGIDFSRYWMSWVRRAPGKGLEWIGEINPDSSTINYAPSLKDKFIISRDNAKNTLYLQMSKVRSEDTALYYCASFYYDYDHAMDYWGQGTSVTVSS VL: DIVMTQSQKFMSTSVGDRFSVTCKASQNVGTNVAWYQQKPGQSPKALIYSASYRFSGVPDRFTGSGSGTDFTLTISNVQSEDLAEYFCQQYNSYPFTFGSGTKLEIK was 9.49

Data origin: patent US20210332145A1
